Measured Contact SP Rhicicep PCT Mortality (%), listed per entry for reference.
System: Rhipicephalus sanguineus (Brown Dog Tick)
Test: whole plant or invertebrate
Settings: 200 ppm; timepoint 24 hrs
Report only the number, with the unit % understood.

Worked cases, Contact SP Rhicicep PCT Mortality (%) given:
>>> obs_value("COC(CNC(=O)c1ccc(COc2cccc(-c3cccc(F)c3)c2)cn1)OC")
100
>>> obs_value("CC(C)CNC(=O)c1ccc(CCOc2ccc(Cl)c(OC(F)(F)F)c2)cn1")
0
>>> obs_value("O=C(NCC1CCOCC1)c1ccc(COCc2ccccc2Cl)cn1")
100
>>> obs_value("CC(C)CNC(=O)c1ccc(COc2cccc(-c3ccccc3)c2)cn1")
100

Sample O=C(NCC1CC1)c1ccc(COc2cccc(-c3cccc(F)c3)c2)cn1 — what was its Contact SP Rhicicep PCT Mortality (%)?
100

Requested read-out: Contact SP Rhicicep PCT Mortality (%). Entry: C=C(C)CNC(=O)c1ccc(COc2cccc(OC)c2)cn1
70

I have this molecule here, O=C(NCC1CCOCC1)c1ccc(COc2ccc(C(F)(F)F)cc2Br)cn1 , and I need its recorded Contact SP Rhicicep PCT Mortality (%).
100

Any idea what Contact SP Rhicicep PCT Mortality (%) was measured for CCOc1cccc(OCc2ccc(C(=O)NCC(C)C)nc2)c1 ?
100

Recorded Contact SP Rhicicep PCT Mortality (%) for CCc1cccc(OCc2ccc(C(=O)NCCSC)nc2)c1 , please?
100
